Entry source: paper PMC6104608

Target: S. pneumoniae Nan A (Streptococcus pneumoniae, UniProt P62575)
Construct: 6x His-tag (C); made in house; host or cells: E. coli BL21 (DE3)
Sequence (P62575 319-822 limits assumed): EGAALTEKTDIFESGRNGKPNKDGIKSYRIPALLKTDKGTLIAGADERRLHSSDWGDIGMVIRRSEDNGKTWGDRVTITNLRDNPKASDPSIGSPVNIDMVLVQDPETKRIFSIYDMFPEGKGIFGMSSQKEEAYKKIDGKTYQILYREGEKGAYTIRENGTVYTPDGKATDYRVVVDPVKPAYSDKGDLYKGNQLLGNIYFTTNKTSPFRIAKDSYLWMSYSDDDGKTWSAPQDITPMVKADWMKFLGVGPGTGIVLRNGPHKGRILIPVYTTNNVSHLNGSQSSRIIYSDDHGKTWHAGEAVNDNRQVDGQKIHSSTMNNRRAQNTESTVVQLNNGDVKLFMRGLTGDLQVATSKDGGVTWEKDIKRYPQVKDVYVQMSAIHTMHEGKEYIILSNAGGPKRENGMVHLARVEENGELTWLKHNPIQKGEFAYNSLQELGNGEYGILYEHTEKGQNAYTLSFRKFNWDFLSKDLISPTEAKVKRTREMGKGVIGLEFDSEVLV
Assay: Fluorescence-based inhibition assay of S. pneumoniae Nan A with MUNANA substrate
Format: biochemical
Conditions: 2.2 nM Nan A, 50 µM substrate, pH 7.5; triplicate; read-out: IC50 against S. pneumoniae Nan A
property_measured: pIC50
Answers are plain numbers, as −log10 of the molar value.

Here is how some compounds turned out for pIC50.
INSERT INTO results (chemical_smiles, recorded_value) VALUES
  ('COc1cc(C=CC(O)=CC(=O)C=Cc2cccnc2)ccc1O', 5.36),
  ('COc1cc(/C=C/C(=O)/C=C(O)/C=C/c2ccc([N+](=O)[O-])cc2)ccc1O', 6.05);

Go through the list and state pIC50 for each entry.
1. COc1cc(/C=C/C(=O)/C=C(O)/C=C/c2ccc(O)c(O)c2)ccc1O
2. COc1cc(/C=C/C(=O)/C=C(O)/C=C/c2ccc(N)cc2)ccc1O
3. COc1cc(/C=C/C(=O)/C=C(O)/C=C/c2ccc(NC(C)=O)cc2)ccc1O
4. COc1cc(/C=C/C(=O)/C=C(O)/C=C/c2ccc(N3CCCCC3)cc2)ccc1O
5. COc1ccc(/C=C/C(O)=C/C(=O)/C=C/c2ccc(OC)c(OC)c2)cc1O

-- reply
1: 6.15; 2: 5.80; 3: 5.74; 4: 5.82; 5: 6.22

-- ask Answer with the recorded pIC50 for the compound listed here: COc1ccc(C=CC(=O)C=C(O)C=Cc2ccc(OC)c(O)c2)cc1O
-- reply 6.00
